Data origin: patent US20140120083A1

- ASSAY EXPLANATION: Pharmacokinetics, mouse
- Assay type: in vivo, BALB/c mice
- TEST PARAMETERS: BALB/c, in vivo, IV, 10 mg/kg, read-out: Vss
READOUT LABEL: Vd (L/kg)
Give the value, in units of L/kg, as a plain number.

Qu. Please look up its Vd: C[C@H](Nc1ncnc2[nH]cnc12)c1cc2cccc(Cl)c2c(=O)n1-c1ccccc1 [Compound 292]
Ans. 1.14

---

- ASSAY EXPLANATION: Pharmacokinetics, dog
- Format: in vivo, Beagle dogs
- TEST PARAMETERS: beagle, in vivo, po, 5 mg/kg, PO, 5 mg/kg (study with 1 mg/kg IV), read-out: AUC0-last (AUC0-24)
READOUT LABEL: AUC(0-t) (ng·h/mL)
Give the value, in units of ng·h/mL, as a plain number.

Qu. Please look up its AUC(0-t): C[C@H](Nc1ncnc2[nH]cnc12)c1cc2cccc(Cl)c2c(=O)n1-c1ccccc1 [Compound 292]
Ans. 10900

---

- ASSAY EXPLANATION: Pharmacokinetics, dog
- Assay type: in vivo, Beagle dogs
- TEST PARAMETERS: beagle, in vivo, iv, 0.5 mg/kg, IV, 0.5 mg/kg, read-out: T1/2 (converted)
READOUT LABEL: half-life (h)
Give the value, in units of h, as a plain number.

Qu. Please look up its half-life: `C[C@H](Nc1ncnc2[nH]cnc12)c1cc2cccc(Cl)c2c(=O)n1-c1ccccc1`
Ans. 2

---

- ASSAY EXPLANATION: Embryo/fetal developmental toxicity, rabbit
- TEST PARAMETERS: female, rabbit, in vivo
READOUT LABEL: NOAEL (mg/kg/day)
Give the value, in units of mg/kg/day, as a plain number.

Qu. Please look up its NOAEL: C[C@H](Nc1ncnc2[nH]cnc12)c1cc2cccc(Cl)c2c(=O)n1-c1ccccc1 [Compound 292]
Ans. 75

---

- ASSAY EXPLANATION: Clinical study in healthy adult subjects, pharmacokinetics
- Type: in vivo, human
- TEST PARAMETERS: human, plasma; healthy subjects, 5 mg BID, 14 days of oral dosing; read-out: mean AUC0-24 hr
READOUT LABEL: AUC(0-t)
Could you give the number and then its unit, please?

Qu. Please look up its AUC(0-t): C[C@H](Nc1ncnc2[nH]cnc12)c1cc2cccc(Cl)c2c(=O)n1-c1ccccc1 [Compound 292]
Ans. 2580 ng·h/mL

---

- ASSAY EXPLANATION: Pharmacokinetics, dog
- Type: in vivo, Beagle dogs
- TEST PARAMETERS: beagle, in vivo, IV, 0.5 mg/kg, read-out: Vss
READOUT LABEL: Vd (L/kg)
Give the value, in units of L/kg, as a plain number.

Qu. Please look up its Vd: C[C@H](Nc1ncnc2[nH]cnc12)c1cc2cccc(Cl)c2c(=O)n1-c1ccccc1 [Compound 292]
Ans. 0.13

---

- TARGET OR SYSTEM: PI3K γ (Homo sapiens, UniProt P48736)
- Sequence (P48736 whole entry): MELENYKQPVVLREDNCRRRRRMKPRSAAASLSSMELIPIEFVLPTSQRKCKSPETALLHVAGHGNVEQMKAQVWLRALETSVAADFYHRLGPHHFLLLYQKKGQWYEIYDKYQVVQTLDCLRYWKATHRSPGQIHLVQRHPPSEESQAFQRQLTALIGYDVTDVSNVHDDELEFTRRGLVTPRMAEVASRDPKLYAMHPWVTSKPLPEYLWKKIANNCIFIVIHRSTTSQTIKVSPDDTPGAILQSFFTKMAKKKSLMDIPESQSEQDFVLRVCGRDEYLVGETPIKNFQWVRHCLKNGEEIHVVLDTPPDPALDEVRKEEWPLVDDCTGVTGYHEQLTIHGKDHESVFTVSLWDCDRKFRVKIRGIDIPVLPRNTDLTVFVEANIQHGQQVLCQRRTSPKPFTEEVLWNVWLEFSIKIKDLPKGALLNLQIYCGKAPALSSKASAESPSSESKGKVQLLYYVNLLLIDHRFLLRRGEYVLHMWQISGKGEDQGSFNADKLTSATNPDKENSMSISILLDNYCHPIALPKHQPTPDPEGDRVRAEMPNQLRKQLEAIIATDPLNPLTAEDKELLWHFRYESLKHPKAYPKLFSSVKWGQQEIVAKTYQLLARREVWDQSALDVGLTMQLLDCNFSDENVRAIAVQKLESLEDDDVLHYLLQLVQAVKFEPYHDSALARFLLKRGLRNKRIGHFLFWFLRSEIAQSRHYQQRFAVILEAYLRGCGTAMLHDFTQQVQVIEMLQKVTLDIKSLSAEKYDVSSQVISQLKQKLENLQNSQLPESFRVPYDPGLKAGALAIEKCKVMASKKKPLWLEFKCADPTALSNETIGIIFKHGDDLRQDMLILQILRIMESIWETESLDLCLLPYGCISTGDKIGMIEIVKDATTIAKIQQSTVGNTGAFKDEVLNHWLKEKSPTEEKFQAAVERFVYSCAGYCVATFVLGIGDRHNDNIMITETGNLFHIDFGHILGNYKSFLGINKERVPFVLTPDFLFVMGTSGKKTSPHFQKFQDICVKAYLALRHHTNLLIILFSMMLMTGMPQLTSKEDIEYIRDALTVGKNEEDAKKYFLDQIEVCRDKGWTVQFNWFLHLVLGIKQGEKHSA
pIC50: −log10 of the molar value.
Measured pIC50 accompanies every entry in the list below.

Example entries and their recorded answers appear below.
Qu. GET /values?readout=pIC50&system=PI3K γ (Homo sapiens, UniProt P48736)&item= `Cc1cccc2cc(Cn3nc(CF)c4c(N)ncnc43)n(-c3ccccc3)c(=O)c12`
Ans. > 7.00

Qu. GET /values?readout=pIC50&system=PI3K γ (Homo sapiens, UniProt P48736)&item= `Cc1cccc2cc(Cn3nc(C(N)=O)c4c(N)ncnc43)n(-c3ccccc3)c(=O)c12`
Ans. > 5.00

Qu. GET /values?readout=pIC50&system=PI3K γ (Homo sapiens, UniProt P48736)&item= `CC(=O)Nc1nc2ccc(-c3nn(Cc4cc5cccc(C)c5c(=O)n4-c4ccccc4C)c4ncnc(N)c34)cc2s1`
Ans. > 7.00

Qu. GET /values?readout=pIC50&system=PI3K γ (Homo sapiens, UniProt P48736)&item= `Cc1cccc2cc([C@H](C)Nc3nc(N)ncc3F)n(C3CC3)c(=O)c12`
Ans. < 5.00

Qu. GET /values?readout=pIC50&system=PI3K γ (Homo sapiens, UniProt P48736)&item= `Cc1cccc2cc([C@H](C)Nc3nc(F)nc4[nH]cnc34)n(-c3ccccc3)c(=O)c12`
Ans. > 7.00

Next:
Qu. GET /values?readout=pIC50&system=PI3K γ (Homo sapiens, UniProt P48736)&item= `Cc1cccc2cc(Cn3nc(-c4cccc(O)c4)c4c(N)ncnc43)n(C3CCCC3)c(=O)c12`
Ans. > 6.00

Qu. GET /values?readout=pIC50&system=PI3K γ (Homo sapiens, UniProt P48736)&item= `Cc1cccc2cc(Cn3nc(-c4cc(O)cc(F)c4)c4c(N)ncnc43)n(-c3ccccc3OCCN3CCOCC3)c(=O)c12`
Ans. > 6.00

---

- ASSAY EXPLANATION: Clinical study in healthy adult subjects, pharmacokinetics
- Type: in vivo, human
- TEST PARAMETERS: human, plasma, oral, 5 mg, 5 mg Q12 h, Day 1; mean (% CV)
READOUT LABEL: half-life

Qu. Please look up its half-life: `C[C@H](Nc1ncnc2[nH]cnc12)c1cc2cccc(Cl)c2c(=O)n1-c1ccccc1`
Ans. 5.76 h

---

- ASSAY EXPLANATION: Pharmacokinetics, mouse
- Type: in vivo, BALB/c mice
- TEST PARAMETERS: BALB/c, in vivo, PO, 10 mg/kg
READOUT LABEL: AUC(0-t) (ng·h/mL)
Give the value, in units of ng·h/mL, as a plain number.

Qu. Please look up its AUC(0-t): C[C@H](Nc1ncnc2[nH]cnc12)c1cc2cccc(Cl)c2c(=O)n1-c1ccccc1 [Compound 292]
Ans. 137

---

- TARGET OR SYSTEM: PI3K β (Homo sapiens)
- Sequence (P42338 whole entry): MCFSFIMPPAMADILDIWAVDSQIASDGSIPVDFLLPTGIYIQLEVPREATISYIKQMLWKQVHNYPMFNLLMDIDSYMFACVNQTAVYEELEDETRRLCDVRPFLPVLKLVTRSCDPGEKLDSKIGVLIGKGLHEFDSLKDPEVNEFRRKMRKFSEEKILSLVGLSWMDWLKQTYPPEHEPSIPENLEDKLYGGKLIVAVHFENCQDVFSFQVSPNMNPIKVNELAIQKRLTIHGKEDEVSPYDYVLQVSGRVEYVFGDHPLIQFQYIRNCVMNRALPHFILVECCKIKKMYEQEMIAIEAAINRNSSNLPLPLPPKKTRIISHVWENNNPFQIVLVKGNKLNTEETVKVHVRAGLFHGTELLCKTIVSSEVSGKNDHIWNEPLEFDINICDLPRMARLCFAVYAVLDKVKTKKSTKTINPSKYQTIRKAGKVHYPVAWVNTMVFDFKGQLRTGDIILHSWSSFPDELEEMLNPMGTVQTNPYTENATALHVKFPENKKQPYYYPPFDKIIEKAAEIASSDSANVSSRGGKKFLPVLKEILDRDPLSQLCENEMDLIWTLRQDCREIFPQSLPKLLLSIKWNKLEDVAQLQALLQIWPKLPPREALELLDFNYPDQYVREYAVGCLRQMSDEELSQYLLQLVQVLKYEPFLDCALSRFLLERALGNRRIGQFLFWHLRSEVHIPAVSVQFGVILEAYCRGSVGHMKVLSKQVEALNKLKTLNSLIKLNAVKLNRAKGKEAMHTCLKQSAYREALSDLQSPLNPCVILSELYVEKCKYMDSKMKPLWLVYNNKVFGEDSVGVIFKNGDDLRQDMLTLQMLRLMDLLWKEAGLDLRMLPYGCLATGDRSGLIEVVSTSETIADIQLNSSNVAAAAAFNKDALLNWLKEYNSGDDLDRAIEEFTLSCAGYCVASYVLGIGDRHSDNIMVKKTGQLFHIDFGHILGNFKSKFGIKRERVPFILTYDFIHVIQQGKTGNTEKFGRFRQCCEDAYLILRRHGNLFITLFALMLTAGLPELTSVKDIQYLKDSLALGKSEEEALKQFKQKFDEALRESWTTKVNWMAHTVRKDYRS
- ASSAY EXPLANATION: In vitro IC50, PI3K β
- Type: biochemical
Measured IC50 accompanies every entry in the list below.

Qu. GET /values?readout=IC50&system=PI3K β (Homo sapiens)&item= `Cc1ccccc1-n1c(Cn2nc(-c3cn[nH]c3)c3c(N)ncnc32)cc2cccc(C)c2c1=O`
Ans. < 10 µM

Qu. GET /values?readout=IC50&system=PI3K β (Homo sapiens)&item= `Cc1cccc2cc([C@H](C)Nc3ncnc4[nH]nc(C#N)c34)n(-c3ccccc3)c(=O)c12`
Ans. < 0.1 µM

Qu. GET /values?readout=IC50&system=PI3K β (Homo sapiens)&item= CCC(Nc1ncnc2[nH]cnc12)c1cc2cccc(C)c2c(=O)n1-c1ccc(F)cc1 (stereo not drawn)
Ans. < 10 µM

Next:
Qu. GET /values?readout=IC50&system=PI3K β (Homo sapiens)&item= `CC(=O)Nc1nc2ccc(-c3nn(Cc4cc5cccc(C)c5c(=O)n4-c4ccccc4C)c4ncnc(N)c34)cc2[nH]1`
Ans. < 10 µM

Qu. GET /values?readout=IC50&system=PI3K β (Homo sapiens)&item= Cc1cccc2cc(C(C)Nc3nc(O)ncc3N)n(-c3ccccc3)c(=O)c12 (stereo not drawn)
Ans. > 10 µM

Qu. GET /values?readout=IC50&system=PI3K β (Homo sapiens)&item= `COc1ccccc1-n1c(Cn2nc(-c3cccc(O)c3)c3c(N)ncnc32)cc2cccc(C)c2c1=O`
Ans. < 10 µM

Qu. GET /values?readout=IC50&system=PI3K β (Homo sapiens)&item= `Cc1cccc2cc(Cn3nc(-c4cc(O)cc(F)c4)c4c(N)ncnc43)n(C3CCCC3)c(=O)c12`
Ans. < 10 µM

Qu. GET /values?readout=IC50&system=PI3K β (Homo sapiens)&item= `Cc1cccc2cc([C@H](C)Nc3nc(N)nc4[nH]cnc34)n(-c3ccccc3)c(=O)c12`
Ans. < 0.1 µM

Qu. GET /values?readout=IC50&system=PI3K β (Homo sapiens)&item= `Cc1cccc2cc([C@H](C)Nc3ncnc4[nH]cnc34)n(C3CC3)c(=O)c12`
Ans. < 0.1 µM

Qu. GET /values?readout=IC50&system=PI3K β (Homo sapiens)&item= `Cc1cccc2cc([C@H](C)Nc3nc(Cl)ncc3Cl)n(-c3ccccc3)c(=O)c12`
Ans. > 10 µM

Qu. GET /values?readout=IC50&system=PI3K β (Homo sapiens)&item= Cc1cccc2cc(C(C)Nc3ncnc4[nH]cnc34)n(C(C)C)c(=O)c12 (stereo not drawn)
Ans. < 10 µM

Qu. GET /values?readout=IC50&system=PI3K β (Homo sapiens)&item= `CC(=O)Nc1nc2ccc(-c3nn(Cc4cc5cccc(C)c5c(=O)n4-c4ccccc4)c4ncnc(N)c34)cc2[nH]1`
Ans. > 10 µM

Qu. GET /values?readout=IC50&system=PI3K β (Homo sapiens)&item= `CCc1ccccc1-n1c(Cn2nc(I)c3c(N)ncnc32)cc2cccc(C)c2c1=O`
Ans. < 10 µM

Qu. GET /values?readout=IC50&system=PI3K β (Homo sapiens)&item= `Cc1cccc2cc(Cn3nc(-c4ccn[nH]4)c4c(N)ncnc43)n(-c3ccccc3F)c(=O)c12`
Ans. > 10 µM

Qu. GET /values?readout=IC50&system=PI3K β (Homo sapiens)&item= `Cc1cccc2cc(Cn3nc(-c4cn[nH]c4)c4c(N)ncnc43)n(-c3ccccc3C(F)(F)F)c(=O)c12`
Ans. < 10 µM
